STUDY TARGET: USP7 (Homo sapiens (Human))
Sequence (Q93009 whole entry): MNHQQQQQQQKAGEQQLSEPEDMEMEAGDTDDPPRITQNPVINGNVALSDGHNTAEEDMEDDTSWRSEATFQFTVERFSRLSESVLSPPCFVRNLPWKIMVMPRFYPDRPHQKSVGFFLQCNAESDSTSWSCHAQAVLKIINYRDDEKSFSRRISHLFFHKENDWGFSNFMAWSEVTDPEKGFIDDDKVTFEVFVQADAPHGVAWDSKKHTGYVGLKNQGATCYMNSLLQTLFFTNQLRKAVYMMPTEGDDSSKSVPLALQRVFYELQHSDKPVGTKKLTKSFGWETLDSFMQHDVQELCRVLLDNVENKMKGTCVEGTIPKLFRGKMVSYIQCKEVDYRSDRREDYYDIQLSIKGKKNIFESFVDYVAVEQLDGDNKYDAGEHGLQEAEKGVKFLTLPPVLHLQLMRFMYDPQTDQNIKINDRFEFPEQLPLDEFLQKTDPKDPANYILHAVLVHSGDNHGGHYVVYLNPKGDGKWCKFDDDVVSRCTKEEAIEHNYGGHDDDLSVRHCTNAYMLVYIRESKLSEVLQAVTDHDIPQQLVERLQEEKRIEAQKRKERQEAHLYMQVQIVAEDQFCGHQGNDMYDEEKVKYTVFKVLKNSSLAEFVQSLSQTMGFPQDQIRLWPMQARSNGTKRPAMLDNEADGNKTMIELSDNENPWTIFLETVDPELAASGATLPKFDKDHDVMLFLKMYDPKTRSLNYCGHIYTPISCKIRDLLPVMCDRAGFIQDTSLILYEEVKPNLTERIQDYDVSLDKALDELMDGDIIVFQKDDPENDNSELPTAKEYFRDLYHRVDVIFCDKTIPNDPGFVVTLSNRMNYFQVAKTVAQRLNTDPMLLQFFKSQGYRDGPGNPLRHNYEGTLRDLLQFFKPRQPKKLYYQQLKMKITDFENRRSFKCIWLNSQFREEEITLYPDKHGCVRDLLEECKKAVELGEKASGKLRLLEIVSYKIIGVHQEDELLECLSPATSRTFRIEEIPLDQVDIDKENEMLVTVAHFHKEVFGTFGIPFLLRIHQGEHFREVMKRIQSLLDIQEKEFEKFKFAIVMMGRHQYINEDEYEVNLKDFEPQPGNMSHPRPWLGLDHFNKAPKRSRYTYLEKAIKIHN
TEST: USP7 fluorescence polarisation (FP) assay with ubiquitin-Lys-TAMRA substrate
Type: biochemical
TEST PARAMETERS: biochemical inhibition; unit not given in Table 3b (Table 1 and key of Table 3a use μM); read-out: USP7 IC50 activity (Table 3b)
Would you mind telling me the reported IC50 of each entry?
One number for each entry, in µM.

Solved entries (count: 5):
COMPOUND	OUTCOME MEASURE	MEASUREMENT
Cc1ccc(C(=O)N2CCC(O)(Cn3cnc4c(cc(Cl)n4-c4ccc([C@H]5CO[C@H](C)CN5)c(C)c4)c3=O)CC2)c(Cl)c1 [Example 57]	IC50	0.084
C[C@@]1(C(=O)N2CCC(O)(Cn3cnc4c(cc(Cl)n4-c4ccc([C@H]5COCCN5)cc4)c3=O)CC2)C[C@H]1C(F)(F)F (single isomer, unassigned) [Example 110]	IC50	0.079
C[C@H]1CN[C@H](c2ccc(-n3c(Cl)cc4c(=O)n(CC5(O)CCN(C(=O)c6ccccc6)CC5)cnc43)cc2)CO1 [Example 20]	IC50	0.379
O=C(c1ccc(Cl)cc1)N1CCC(O)(Cn2cnc3c(cc(Cl)n3-c3ccc([C@H]4COCCN4)cc3)c2=O)CC1 (single isomer, unassigned) [Example 76]	IC50	0.038
C[C@H]1CN[C@@H](c2ccc(-n3c(Cl)cc4c(=O)n(CC5(O)CCN(C(=O)c6ccc(Cl)cc6)CC5)cnc43)cc2)CO1 (single isomer, unassigned) [Example 68]	IC50	0.702

-- ask If you can, please state the reported IC50 value of CC1(C)CN[C@@H](c2ccc(-n3c(Cl)cc4c(=O)n(CC5(O)CCN(C(=O)c6ccc(Cl)cc6)CC5)cnc43)cc2)CO1 (single isomer, unassigned) [Example 23] .
-- reply 0.143
